- assay-info: Stability on human microsomes
- Assay type: in vitro ADME
- Design: dose or concentration left out as unconfirmed
- stated-conditions: pooled liver microsomes, pH 7.4, 37 °C, NADPH-generating system, read-out: Stability on human microsomes T1/2
- Procedure: The metabolic stability of IP-DHA on human microsomes (microsomes S9, cryopreserved hepatocytes, recombinant CYP, and recombinant UGT) has been evaluated and expressed as percentage of IP-DHA remaining. IP-DHA was pre-incubated with pooled liver microsomes in phosphate buffer (pH 7.4) at 10 mM for 5 min in a 37 °C shaking water bath (IKA® RH basic KT/C). […] IP-DHA concentration was determined using µHPLC-MS/MS analysis, as described in Section 2.2.3. […]
measure: half-life (min)
The reply should contain only the number, in min.

Provide half-life value for the following compound: CC/C=C\C/C=C\C/C=C\C/C=C\C/C=C\C/C=C\CCC(=O)Oc1cc(O)cc(OC(C)C)c1 [IP-DHA, phloroglucinol-isopropyl-DHA]
10

* * *

- assay-info: Solubility of IP-DHA in SNEDDS excipients
- Assay type: physicochemical
- stated-conditions: Labrasol; surfactant; read-out: Solubility of IP-DHA in Labrasol
measure: solubility (mg/mL)
The reply should be a number in mg/mL, with the unit left off.

Give solubility for "CC/C=C\C/C=C\C/C=C\C/C=C\C/C=C\C/C=C\CCC(=O)Oc1cc(O)cc(OC(C)C)c1"
46

* * *

- assay-info: Log P of IP-DHA
- Type: physicochemical
measure: logP

Note logP for the compound shown: "CC/C=C\C/C=C\C/C=C\C/C=C\C/C=C\C/C=C\CCC(=O)Oc1cc(O)cc(OC(C)C)c1"
> 5

* * *

- assay-info: Solubility of IP-DHA in SNEDDS excipients
- Assay type: physicochemical
- stated-conditions: Transcutol HP, organic solvent or mixture; co-surfactant; read-out: Solubility of IP-DHA in Transcutol HP
measure: solubility (mg/mL)
Entry rule: numbers only, all in mg/mL.

Please report the measured solubility for CC/C=C\C/C=C\C/C=C\C/C=C\C/C=C\C/C=C\CCC(=O)Oc1cc(O)cc(OC(C)C)c1 [IP-DHA, phloroglucinol-isopropyl-DHA]
45

* * *

- assay-info: Solubility of IP-DHA in PBS, SGF and ISF without enzymes
- Type: physicochemical
- stated-conditions: PBS, pH 7.4, aqueous buffer, thermodynamic from solid; room temperature, n = 3; read-out: Solubility in PBS, pH 7.4
measure: solubility (mg/mL)
The reply should contain only the number, in mg/mL.

Supply recorded solubility for CC/C=C\C/C=C\C/C=C\C/C=C\C/C=C\C/C=C\CCC(=O)Oc1cc(O)cc(OC(C)C)c1 [IP-DHA, phloroglucinol-isopropyl-DHA] here.
0.0115
